- Test system: UW 479 (Glioma)
- protocol details: In vitro cytotoxicity, MTS cell viability test, 72 h
- Type: cell-based, human
- details: Homo sapiens; UW 479 (Glioma), 72 h incubation, nanoparticle suspension, MTS; read-out: IC50

compound: O=P1(NCCCl)OCCCN1CCCl (stereo not shown) [Ifosfamide, reference compound]
IC50: > 100 µM

====

- System: MiaPaCa-2
- protocol details: In vitro cytotoxicity, MTS cell viability test, 72 h
- Type: cell-based
- details: Homo sapiens, MIA PaCa-2; MiaPaCa-2, 72 h incubation, nanoparticle suspension, MTS; read-out: IC50

molecule: O=P1(NCCCl)OCCCN1CCCl (stereo not shown) [Ifosfamide, reference compound]
IC50: > 100 µM
